- study system: T1, PPARγ-ligand binding domain (amino acids 204–477) (human, UniProt P37231-2 204-477, biotinylated for biolayer interferometry; 15N-labeled for NMR)
- T1 construct: The His tag is used for capture in the pulldown; also called PPARγ-LBD; wild-type PPARγ; source: E. coli BL21 (DE3)-CodonPlus, purified; not shown: His6, N-terminal, kept
- T1 sequence (looked up): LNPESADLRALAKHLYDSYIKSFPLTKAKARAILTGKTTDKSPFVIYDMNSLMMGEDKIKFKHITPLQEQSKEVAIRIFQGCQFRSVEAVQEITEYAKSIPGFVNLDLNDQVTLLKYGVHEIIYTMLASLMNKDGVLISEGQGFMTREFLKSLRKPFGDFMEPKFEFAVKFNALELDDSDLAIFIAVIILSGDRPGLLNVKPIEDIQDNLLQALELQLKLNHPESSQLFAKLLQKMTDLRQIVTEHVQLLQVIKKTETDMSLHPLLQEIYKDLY
- test name: BLI; Octet Red 96; 50 μg/ml biotinylated PPARα-LBD or PPARγ-LBD (or their mutants) immobilised on streptavidin biosensors; analyte β-arrestin-1, βarr1M or peptides in solution (single 2 μM or serial dilutions, β-arrestin-1 0.5–32 μM); 25 °C; 2:1 heterogeneous ligand model and steady-state analysis
- test conditions: both partners purified
quantity measured: Kd

binder="PAPEDKKPLTRLQERLIKKLG [synthetic β-arrestin-1 peptide harboring the LQERLIKKL sequence]" quantity_measured=Kd result_value="560 µM"
